test system: Ramos B-Cell Line Stimulated with IL-4 (JAK-1 and JAK-3 / Stat-6, CD23); assay: Assay for Ramos B-Cell Line Stimulated with IL-4 (CD23 upregulation, FACS); type: cell-based; conditions: Homo sapiens, Ramos, human Ramos B cells, compound 1 hour, IL-4 50 units/mL for 20-24 hours, anti-CD23-PE FACS; read-out: Example 2 (IC50)
attribute-measured: IC50 (nM)

P: CN1CCN(C(=O)c2ccc(Nc3ncc(F)c(Nc4ccc(OCC#N)cc4)n3)cc2)CC1
Q: CCc1cc(Nc2ncc(F)c(Nc3ccc4c(c3)NC(=O)CS4)n2)cc(C#N)c1Cl
R: N#Cc1cccc(Nc2ncc(F)c(Nc3cccc(OCC(N)=O)c3)n2)c1
S: Cc1noc(COc2ccc(Nc3nc(Nc4ccc(CC#N)cc4)ncc3F)cc2)n1
With the 4 compounds above, produce a list ordered by ascending IC50. Please list the labels in the order you were asked to rank them.
S, P, Q, R

* * *

test system: Ramos B-Cell Line Stimulated with IL-4 (JAK-1 and JAK-3 / Stat-6, CD23); assay: Assay for Ramos B-Cell Line Stimulated with IL-4 (CD23 upregulation, FACS); type: cell-based; conditions: Homo sapiens, Ramos, human Ramos B cells, compound 1 hour, IL-4 50 units/mL for 20-24 hours, anti-CD23-PE FACS; read-out: Example 2 (IC50)
pIC50: −log10 of the molar value.
attribute-measured: pIC50

Examples from the recorded data:
N#CCc1ccc(Nc2ncc(F)c(Nc3ccc(F)c(C#N)c3)n2)cc1 ... 3.99
NC(=O)COc1ccc(Nc2nc(Nc3ccc(C(N)=O)cc3)ncc2F)cc1 ... 6.38
COC(=O)c1ccc(Nc2nc(Nc3cccc(C(N)=O)c3)ncc2F)s1 ... 5.98

P: CNC(=O)c1cc(Nc2ncc(F)c(Nc3ccc(OCC#N)cc3)n2)ccc1N1CCN(C)CC1
Q: CC(C)(C#N)Oc1ccc(Nc2nc(Nc3ccc(CC#N)cc3)ncc2F)cc1
When their pIC50 values are compared, which is larger, P or Q ? Write down the label of the entry you select.
P

1: N#CCOc1cccc(Nc2nc(Nc3ccc(C#N)cc3)ncc2F)c1
2: Cc1cnc(Nc2cccc(C(N)=O)c2)nc1Nc1ccc2c(c1)N(C)C(=O)C(C)(C)O2
3: N#CCOc1ccc(Nc2nc(Nc3cccc(C(N)=O)c3)ncc2F)cc1F
# sort list by recorded pIC50, greatest to least Please list the labels in the order you were asked to rank them.
2, 3, 1

* * *

test system: Ramos B-Cell Line Stimulated with IL-4 (JAK-1 and JAK-3 / Stat-6, CD23); assay: Assay for Ramos B-Cell Line Stimulated with IL-4 (CD23 upregulation, FACS); type: cell-based; conditions: Homo sapiens, Ramos, human Ramos B cells, compound 1 hour, IL-4 50 units/mL for 20-24 hours, anti-CD23-PE FACS; read-out: Example 2 (IC50)
attribute-measured: IC50 (nM)

CN1CCN(C(=O)c2ccc(Nc3ncc(F)c(Nc4cccc(OCC(N)=O)c4)n3)cc2)CC1 ... 913
Cc1nc(COc2ccc(Nc3nc(Nc4cccc(C(N)=O)c4)ncc3F)cc2)no1 ... 292
Cc1noc(CCCc2ccc(Nc3nc(Nc4cccc(C#N)c4)ncc3F)cc2)n1 ... 1750
N#CCc1ccc(Nc2ncc(F)c(Nc3ccc(CC#N)cc3)n2)cc1 ... 195
Cc1noc(COc2ccc(Nc3nc(Nc4ccc(CC#N)cc4)ncc3F)c(C)c2)n1 ... 258
N#CCOc1ccc(Nc2ncc(F)c(Nc3ccc(OCC#N)c(Cl)c3)n2)cc1Cl ... 350

A: CC(C#N)Oc1ccc(Nc2nc(Nc3cccc(C(N)=O)c3)ncc2F)cc1 (stereo not drawn)
B: CC(C)OC(=O)COc1ccc(Nc2nc(Nc3ccc(C(=O)N4CCN(C)CC4)cc3)ncc2F)cc1
When their IC50 values are compared, which is larger, A or B ? Write down the label of the entry you select.
B

P: COc1ccc(Nc2nc(Nc3ccc(C(=O)Nc4ccn(C)n4)cc3)ncc2F)cc1Cl
Q: N#CCOc1cccc(Nc2nc(Nc3cccc(C#N)c3)ncc2F)c1
When their IC50 values are compared, which is larger, P or Q ? Write down the label of the entry you select.
P

1: CN1CCN(c2ccc(Nc3ncc(F)c(Nc4ccc(OCC#N)cc4)n3)cc2C#N)CC1
2: C#CCOc1ccc(Nc2nc(Nc3cccc(C(N)=S)c3)ncc2F)cc1
When their IC50 values are compared, which is larger, 1 or 2 ? Write down the label of the entry you select.
2
(2: 1150 nM, 1: 3.4 nM)

* * *

system: Ramos B-Cell Line Stimulated with IL-4 (JAK-1 and JAK-3 / Stat-6, CD23); test: Assay for Ramos B-Cell Line Stimulated with IL-4 (CD23 upregulation, FACS); type: cell-based; conditions: Homo sapiens, Ramos, human Ramos B cells, compound 1 hour, IL-4 50 units/mL for 20-24 hours, anti-CD23-PE FACS; read-out: Example 2 (IC50)
attribute-measured: IC50 (nM)

Examples from the recorded data:
CNC(=O)c1cc(Nc2ncc(F)c(Nc3ccc(CC#N)cc3)n2)ccc1N1CCN(C)CC1 ... 694
CC(C)(C#N)Oc1ccc(Nc2nc(Nc3ccc(C(N)=O)cc3)ncc2F)cc1 ... 148
N#CCOc1ccc(Nc2nc(Nc3cccc(C#N)c3)ncc2F)cc1 ... 71

A: Cc1cnc(Nc2cccc(C#N)c2)nc1Nc1ccc2c(c1)NC(=O)CS2
B: Cc1cc(Nc2nc(Nc3ccc(CC#N)cc3)ncc2F)ccc1OC(C)C#N (stereo not drawn)
When their IC50 values are compared, which is larger, A or B ? Write down the label of the entry you select.
B
(B: 381 nM, A: 73.4 nM)

* * *

test system: Ramos B-Cell Line Stimulated with IL-4 (JAK-1 and JAK-3 / Stat-6, CD23); experiment: Assay for Ramos B-Cell Line Stimulated with IL-4 (CD23 upregulation, FACS); assay type: cell-based; conditions: Homo sapiens, Ramos, human Ramos B cells, compound 1 hour, IL-4 50 units/mL for 20-24 hours, anti-CD23-PE FACS; read-out: Example 2 (IC50)
attribute-measured: IC50 (nM)

Examples from the recorded data:
COc1ccc(Nc2nc(Nc3ccc(C(=O)Nc4ccnn4C)cc3)ncc2F)cc1Cl ... 57.5
COc1ccc(Nc2nc(Nc3ccc4oc(C(=O)NCCN5CCOCC5)cc4c3)ncc2F)cc1Cl ... 150
Cc1cc(Nc2nc(Nc3ccc(C(N)=O)c(Cl)c3)ncc2F)ccc1N1CCN(C)CC1 ... 56.3
CNC(=O)COc1cccc(Nc2ncc(N)c(Nc3ccc4cn[nH]c4c3)n2)c1 ... 1970
Cc1cc(Nc2nc(Nc3ccc(C(N)=O)cc3)ncc2F)cc(C)c1OC(C)C#N (stereo not drawn) ... 103

1: N#CCc1ccc(Nc2nc(Nc3ccc(C(N)=O)cc3)ncc2F)cc1
2: CN1CCN(c2ccc(Nc3ncc(F)c(Nc4ccc(CC#N)cc4)n3)cc2C(N)=O)CC1
Please indicate which entry, 1 or 2 , has the lower recorded IC50 value. Write down the label of the entry you select.
1

a: CC1(C)Oc2ccc(Nc3nc(Nc4ccc5oc(C(=O)NCCN6CCOCC6)cc5c4)ncc3F)nc2NC1=O
b: N#CCc1ccc(Nc2ncc(F)c(Nc3ccc(OCC(N)=O)cc3)n2)cc1
c: N#CCc1ccc(Nc2nc(Nc3cccc(C#N)c3)ncc2F)cc1
d: C#CCOc1ccc(Nc2nc(Nc3cccc(C(N)=O)c3)ncc2F)cc1
# sort list by recorded IC50, greatest to least Please list the labels in the order you were asked to rank them.
d, c, b, a
(d: 2770 nM, c: 1150 nM, b: 278 nM, a: 144 nM)

* * *

test system: Ramos B-Cell Line Stimulated with IL-4 (JAK-1 and JAK-3 / Stat-6, CD23); experiment: Assay for Ramos B-Cell Line Stimulated with IL-4 (CD23 upregulation, FACS); assay type: cell-based; settings: Homo sapiens, Ramos, human Ramos B cells, compound 1 hour, IL-4 50 units/mL for 20-24 hours, anti-CD23-PE FACS; read-out: Example 2 (IC50)
attribute-measured: IC50 (nM)

A: CN1CCN(c2ccc(Nc3ncc(F)c(Nc4ccc(OCC#N)cc4)n3)cc2C(N)=O)CC1 [Compound I-42]
B: N#CCOc1ccc(Nc2nc(Nc3ccc(CC#N)cc3)ncc2F)cc1F [Compound I-103]
When their IC50 values are compared, which is larger, A or B ? Write down the label of the entry you select.
B

* * *

test system: Ramos B-Cell Line Stimulated with IL-4 (JAK-1 and JAK-3 / Stat-6, CD23); experiment: Assay for Ramos B-Cell Line Stimulated with IL-4 (CD23 upregulation, FACS); assay type: cell-based; conditions: Homo sapiens, Ramos, human Ramos B cells, compound 1 hour, IL-4 50 units/mL for 20-24 hours, anti-CD23-PE FACS; read-out: Example 2 (IC50)
attribute-measured: IC50 (nM)

Examples from the recorded data:
C#CCOc1ccc(Nc2nc(Nc3ccc(C(N)=O)cc3)ncc2F)cc1 [Compound I-8] ... 118
NC(=O)COc1cccc(Nc2nc(Nc3cccc(C(N)=O)c3)ncc2F)c1 [Compound I-33] ... 3050
N#CCc1ccc(Nc2ncc(F)c(Nc3ccc(Cc4ccncc4)cc3)n2)cc1 [Compound I-131] ... 382
CN1CCOc2cc(Nc3nc(Nc4ccc(C(N)=O)cc4)ncc3F)ccc21 [II-3] ... 62.9

P: Cc1cc(Nc2nc(Nc3ccc(CC#N)cc3)ncc2F)cc(C)c1OCC#N [Compound I-89]
Q: CN1CCN(c2ccc(Nc3ncc(F)c(Nc4ccc(OCC(N)=O)cc4)n3)cc2C(N)=O)CC1 [Compound I-38]
R: Cc1cnc(Nc2cccc(C#N)c2)nc1Nc1ccc2c(c1)NC(=O)CO2 [II-6]
Task for the reader: rank each entry by its IC50, from the minimum upward. Please list the labels in the order you were asked to rank them.
R, P, Q

a: CCc1cc(Nc2ncc(F)c(Nc3ccc4c(c3)NC(=O)C(F)(F)O4)n2)cc(C#N)c1Cl [II-24]
b: COc1cc(Nc2nc(Nc3ccc4oc(C(=O)NCCN5CCOCC5)cc4c3)ncc2F)ccc1Cl [III-2]
When their IC50 values are compared, which is larger, a or b ? Write down the label of the entry you select.
a

I: CN1C(=O)C(C)(C)Oc2ccc(Nc3nc(Nc4ccc5c(c4)C(=O)NCC5)ncc3F)nc21 [IV-2]
II: Cc1noc(CCc2ccc(Nc3nc(Nc4ccc(CCC#N)cc4)ncc3F)cc2)n1 [Compound I-121]
When their IC50 values are compared, which is larger, I or II ? Write down the label of the entry you select.
II
(II: 2140 nM, I: 748 nM)
